These data points were gathered from patent US4654370A.

System: audiogenic seizures
Experiment: Protective effects against audiogenic seizures in mice
Type: in vivo
Conditions: oral; 800 mg./kg. valproic acid equivalent; 30 min after dosing; bell for one minute; groups of 10 mice
Metric: Percentage of Mice Exhibiting Seizures, Tonic Extension
Please report the result as a number followed by the unit.

These recorded examples may help you get a feel for the data.
# Compound, Result
records = [
    ("CCCC(CCC)C(=O)O", "10%"),
    ("CCCC(CCC)C(=O)OCC(COC(=O)C(CCC)CCC)OC(=O)C(CCC)CCC [Glycerol trivalproate]", "80%"),
    ("CCCC(CCC)C(=O)OCC(O)CO (racemic)", "10%"),
]

Query string: Return value of Percentage of Mice Exhibiting Seizures, Tonic Extension for input CCCC(CCC)C(=O)OC(COC(C)=O)COC(C)=O [Example 5, 1,3-Diacetyl-2-valproyl-glyceride] , no commentary.
Result string: 10%

====

Test: Absorption profiles and area-under-the-curve in beagle dog
Type: in vivo
Conditions: blood, single oral dose 24.9 mg./kg. valproic acid equivalent, 0.5 hrs.
Metric: concentration at 0.5 h (µg/mL)
Answers are plain numbers, in µg/mL.

Query string: Return value of concentration at 0.5 h for input CCCC(CCC)C(=O)O [Valproic Acid, 2-propylpentanoic acid] , no commentary.
Result string: 65.6

====

Test: Absorption profiles and area-under-the-curve in beagle dog
Assay type: in vivo
Conditions: blood, single oral dose 24.9 mg./kg. valproic acid equivalent, 6 hrs.
Metric: concentration at 6 h (ng/mL)
Give bare numbers, in ng/mL.

Query string: Return value of concentration at 6 h for input CCCC(CCC)C(=O)O [Valproic Acid, 2-propylpentanoic acid] , no commentary.
Result string: 1300

====

Assay: Absorption profiles and area-under-the-curve in beagle dog
Assay type: in vivo
Conditions: blood, single oral dose 24.9 mg./kg. valproic acid equivalent, 4 hrs.
Metric: concentration at 4 h (ng/mL)
One number for each entry, in ng/mL.

Query string: Return value of concentration at 4 h for input CCCC(CCC)C(=O)O , no commentary.
Result string: 2600

====

Assay: Valproic acid blood plasma levels after oral intubation in mice
Assay type: in vivo
Details: mouse, 1.5 hrs., equivalent of 200 mg. valproic acid per animal, mean of 3-18 animals
Metric: concentration at 1.5 h
Please report the result as a number followed by the unit.

Query string: Return value of concentration at 1.5 h for input CCCC(CCC)C(=O)O , no commentary.
Result string: 72 µg/mL

====

Tested on: audiogenic seizures
Assay: Protective effects against audiogenic seizures in mice
Type: in vivo
Details: oral; 800 mg./kg. valproic acid equivalent; 30 min after dosing; bell for one minute; groups of 10 mice
Procedure: The valproic acid equivalent of 800 mg./kg. of each compound was administered by oral intubation in a composition prepared as shown in Example 12 to groups of 10 mice. Thirty minutes after dosing, convulsions were produced by electrically activating a bell for one minute.
Metric: Percentage of Mice Exhibiting Seizures, Any Type

These recorded examples may help you get a feel for the data.
# Molecule, Result
rows = [
    ("CCCC(CCC)C(=O)O", "50%"),
    ("CCCC(CCC)C(=O)OCC(COC(=O)C(CCC)CCC)OC(=O)C(CCC)CCC [Glycerol trivalproate]", "100%"),
    ("CCCC(CCC)C(=O)OC(COC(C)=O)COC(C)=O [Example 5, 1,3-Diacetyl-2-valproyl-glyceride]", "50%"),
]

Query string: Return value of Percentage of Mice Exhibiting Seizures, Any Type for input CCCC(CCC)C(=O)OCC(O)CO (racemic) , no commentary.
Result string: 50%

====

Assay: Absorption profiles and area-under-the-curve in beagle dog
Format: in vivo
Conditions: blood, single oral dose 24.9 mg./kg. valproic acid equivalent, 2 hrs.
Metric: concentration at 2 h (ng/mL)
One number for each entry, in ng/mL.

Query string: Return value of concentration at 2 h for input CCCC(CCC)C(=O)O [Valproic Acid, 2-propylpentanoic acid] , no commentary.
Result string: 9000
